Counter-ions that a name gives are not always drawn.
attribute measured: melting point

molecule	melting point
CCCCCCCCCCCCOC(=O)C(C)NCCO.Cl (centres unmarked)	134 to 139 °C
CCCCCCCCCCCC(C)OC(=O)C(C)N(C)C (centres unmarked) (as salt: hydrochloride)	88 to 94 °C
CCCCCCCCCCCCOC(=O)C(C)N(C)C (centres unmarked) (as salt: salt) [Nex-30]	45 to 50 °C
CCCCCCCCCCCC(C)(C)OC(=O)C(C)N(C)C.Cl (centres unmarked)	100 to 106 °C

Alright, here's another molecule for you.
Please look up its melting point: CCCCCCCCCCCCOC(=O)C(C)(C)N(C)C (as salt: hydrochloride)
68 to 74 °C
